experiment: Caco2 protocol: transport through Caco-2 cell monolayers (Papp); type: in vitro ADME; details: human; Caco-2 cultured 7 days; apical pH 6.5, basolateral pH 7.4; 100 μM apical; 30 min; read-out: Caco2 (7 day)
observation type: Papp A→B at 30 min, 100 μM (×10⁻⁶ cm/s)
Return type: number; implicit unit ×10⁻⁶ cm/s.

Reported Papp A→B at 30 min, 100 μM of CC(C)C(N)C(=O)O[C@@H]1[C@@H](CO)O[C@@H](n2ccc(N)nc2=O)[C@]1(C)O (stereo partly shown) [I-5, reference compound] : 0.12
